Target: HLA-A0206 (Homo sapiens, UniProt P04439, D140Y/D185E/D98H/E176V/E277Q/F33Y/G131W/G231S/I119V/I121R/I166T/I218V/L300P/L318F/N151K/N90K/P208A/P217A/Q86G/Q94H/R138H/R169H/T345S)
Construct: expressed in transfected cells; host or cells: HMy2.CIR
Test: cell-based
Type: binding
Conditions: HLA-A0206 HMy2.CIR cells; competitor peptide 15μM; 24 hours; flow cytometry; read-out: 15μM Inhibition (%)
Procedure: HMy2.CIR cell line was purchased (Zhongqiao xinzhou Biotech, Shanghai) and maintained in complete IMDM medium with 10% FCS and 1% penicillin/streptomycin. […] The plate was centrifuged at 600 rpm for 5 min at room temperature (RT). […] Finally, cells were resuspended with 150 μL PBS and analyzed with flow cytometry. […] Binding affinity of unlabeled peptide with the indicated HLA-A molecule is assessed by IC50.
Residues, ends and D or L forms follow the SMILES beside them.
A collection of compounds and their measured inhibition at 15 µM
Report the value in % with no unit label.

Some solved cases for reference:
>>> assay_result("CC(C)C[C@H](NC(=O)[C@@H](N)Cc1ccccc1)C(=O)N1CCC[C@H]1C(=O)N[C@@H](CO)C(=O)N[C@@H](CC(=O)O)C(=O)N[C@@H](Cc1ccccc1)C(=O)N[C@@H](Cc1ccccc1)C(=O)N1CCC[C@H]1C(=O)N[C@@H](CO)C(=O)O [Epitope P67] (H-FLPSDFFPS-OH; N-terminus and C-terminus assumed)")
100
>>> assay_result("CSCC[C@H](NC(=O)[C@@H](N)CO)C(=O)N[C@@H](Cc1ccc(O)cc1)C(=O)N1CCC[C@H]1C(=O)N[C@@H](CO)C(=O)N[C@@H](CS)C(=O)N[C@@H](CS)C(=O)N[C@@H](CS)C(=O)N[C@H](C(=O)N[C@@H](CCCCN)C(=O)O)[C@@H](C)O [Epitope P13] (H-SMYPSCCCTK-OH; N-terminus and C-terminus assumed)")
10.2

--- query ---
// query Which inhibition at 15 µM reading was recorded for the compound CC[C@H](C)[C@H](NC(=O)[C@H](CO)NC(=O)[C@H](Cc1ccc(O)cc1)NC(=O)[C@@H](N)CC(C)C)C(=O)N[C@@H](CC(C)C)C(=O)N[C@@H](CO)C(=O)N1CCC[C@H]1C(=O)N[C@@H](Cc1ccccc1)C(=O)N[C@@H](CC(C)C)C(=O)O [Epitope P19] (H-LYSILSPFL-OH; N-terminus and C-terminus assumed) ?
// result 10.6
